Tested on: lung cancer cells (Bm7brmx2-1st)
ASSAY_PROTOCOL: cytotoxicity assay in Bm7brmx2-1st cells
Format: cell-based
pIC50: −log10 of the molar value.
Assign yes whenever pIC50 does not fall below 4; assign no whenever it does.

- N#C/C(=C/c1cccc(C(F)(F)F)c1)c1nc(CCN2C(=O)c3ccccc3C2=O)cs1: no
- O=C1c2ccccc2C(=O)N1CCc1csc(COc2ccccc2Cl)n1 [12W-0264]: yes
- N#C/C(=C\c1ccc(OCc2cccc(C(F)(F)F)c2)cc1)c1nc(CCN2C(=O)c3ccccc3C2=O)cs1: yes
- N#C/C(=C\c1cccc2ccccc12)c1nc(CCN2C(=O)c3ccccc3C2=O)cs1: no
- N#C/C(=C\c1ccccc1Oc1ccc(Cl)cc1Cl)c1nc(CCN2C(=O)c3ccccc3C2=O)cs1: yes
- O=C(Nc1nc(CCN2C(=O)c3ccccc3C2=O)cs1)c1ccc([N+](=O)[O-])cc1: yes
- COc1ccc(C(=O)Nc2nc(CCN3C(=O)c4ccccc4C3=O)cs2)cc1OC: yes
- CSc1ccc(/C=C(/C#N)c2nc(CCN3C(=O)c4ccccc4C3=O)cs2)cc1: yes
- O=C1c2ccccc2C(=O)N1CCc1csc(-c2ccccc2)n1 [11W-0296]: no
- N#C/C(=C/c1ccc(OCc2ccccc2)cc1)c1nc(CCN2C(=O)c3ccccc3C2=O)cs1: yes
- COc1ccc(OC)c(/C=N/Nc2nc(CCN3C(=O)c4ccccc4C3=O)cs2)c1: yes

----------
ASSAY_PROTOCOL: cytotoxicity assay in HNOF cells
Format: cell-based
RUN_PARAMETERS: human, HNOF cells
QUANTITY: IC50 (µM)

* Cc1ccc(-c2nc(CCN3C(=O)c4ccccc4C3=O)cs2)cc1 [12W-0274] | 125
* O=C1c2ccccc2C(=O)N1CCc1csc(-c2ccccc2)n1 [11W-0296] | 92
* N#C/C(=C\c1cccc2ccccc12)c1nc(CCN2C(=O)c3ccccc3C2=O)cs1 | 114
* N#C/C(=C\c1ccc(OCc2cccc(C(F)(F)F)c2)cc1)c1nc(CCN2C(=O)c3ccccc3C2=O)cs1 | 141
* N#C/C(=C\C=C\c1ccccc1)c1nc(CCN2C(=O)c3ccccc3C2=O)cs1 | 411
* N#C/C(=C/c1cc([N+](=O)O)ccc1Sc1ccccn1)c1nc(CCN2C(=O)c3ccccc3C2=O)cs1 | 145
* N#C/C(=C/c1ccc(OCc2ccccc2)cc1)c1nc(CCN2C(=O)c3ccccc3C2=O)cs1 | 77.6
* O=C1c2ccccc2C(=O)N1CCc1csc(COc2cccc(C(F)(F)F)c2)n1 [12W-0232] | 103
* N#C/C(=C/c1cccc(C(F)(F)F)c1)c1nc(CCN2C(=O)c3ccccc3C2=O)cs1 | 152
* N#C/C(=C\c1ccccc1Oc1ccc(Cl)cc1Cl)c1nc(CCN2C(=O)c3ccccc3C2=O)cs1 | 262
* N#C/C(=C\c1ccncc1)c1nc(CCN2C(=O)c3ccccc3C2=O)cs1 | 153
* COc1ccc(C(=O)Nc2nc(CCN3C(=O)c4ccccc4C3=O)cs2)cc1OC | 85.7
* O=C1c2ccccc2C(=O)N1CCc1csc(Nc2ccc(Cl)c(Cl)c2)n1 | 80
* CC(C)CN1CCCc2cc(/C=C(\C#N)c3nc(CCN4C(=O)c5ccccc5C4=O)cs3)ccc21 | 80.7
* COc1ccc(OC)c(/C=N/Nc2nc(CCN3C(=O)c4ccccc4C3=O)cs2)c1 | 78.4
* O=C1c2ccccc2C(=O)N1CCc1csc(-c2cccc(F)c2)n1 [12W-0275] | 129
* O=C1c2ccccc2C(=O)N1CCc1csc(-c2ccccn2)n1 [12W-0266] | 184
